Every entry's value here was drawn from ChEMBL document CHEMBL1126495.

Catalogue of pIC50 values
- TEST SYSTEM: Cysteinyl leukotriene receptor 1 (Cavia porcellus, UniProt Q2NNR5)
- Sequence (Q2NNR5 whole entry): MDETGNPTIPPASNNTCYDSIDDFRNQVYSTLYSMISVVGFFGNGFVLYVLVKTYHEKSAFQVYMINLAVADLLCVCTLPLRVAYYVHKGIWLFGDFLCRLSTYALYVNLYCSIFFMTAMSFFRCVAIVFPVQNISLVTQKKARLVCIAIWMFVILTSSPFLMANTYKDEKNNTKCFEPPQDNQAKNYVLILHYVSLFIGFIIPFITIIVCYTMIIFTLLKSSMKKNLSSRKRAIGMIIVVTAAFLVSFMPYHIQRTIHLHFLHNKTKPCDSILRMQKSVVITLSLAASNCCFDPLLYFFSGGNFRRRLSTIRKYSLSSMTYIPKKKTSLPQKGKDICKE
Entry type: numeric. Quantity: pIC50, the -log10 of concentration in molar units.

Known pIC50 results, listed for orientation:
>  <SMILES>
CC(C)(CC[C@@H](SCc1ccccc1C(C)(C)O)c1cccc(/C=C/c2ccc3ccc(Cl)cc3n2)c1)CC(=O)O

>  <REPORTED MEASUREMENT>
9.00

$$$$
>  <SMILES>
CC(C)(CC[C@H](SCCc1ccccn1)c1cccc(CCc2ccc3ccc(Cl)cc3n2)c1)CC(=O)O

>  <REPORTED MEASUREMENT>
8.66

$$$$
>  <SMILES>
CC(C)(CC[C@@H](SCc1ccccc1C(C)(C)O)c1cccc(CCc2ccc3ccc(Cl)cc3n2)c1)CC(=O)O

>  <REPORTED MEASUREMENT>
8.72

$$$$
>  <SMILES>
CC(C)(CC[C@H](SCc1ccccn1)c1cccc(CCc2ccc3ccc(Cl)cc3n2)c1)CC(=O)O

>  <REPORTED MEASUREMENT>
8.80

$$$$
>  <SMILES>
CC(C)(O)c1ccccc1CS[C@@H](CCC1(CC(=O)O)CC1)c1cccc(CCc2ccc3ccc(Cl)cc3n2)c1

>  <REPORTED MEASUREMENT>
8.85

$$$$

Task item: Please state recorded pIC50 (tested on Cysteinyl leukotriene receptor 1 (Cavia porcellus, UniProt Q2NNR5)) of CC(C)(CC[C@H](SCc1ccccc1C(C)(C)O)c1cccc(/C=C/c2ccc3ccc(Cl)cc3n2)c1)CC(=O)O
Reply: 9.22

Task item: Please state recorded pIC50 (tested on Cysteinyl leukotriene receptor 1 (Cavia porcellus, UniProt Q2NNR5)) of C[C@H](CCC[C@@H](SCCC(C)(C)O)c1cccc(/C=C/c2ccc3ccc(Cl)cc3n2)c1)C(=O)O
Reply: 9.10

Task item: Please state recorded pIC50 (tested on Cysteinyl leukotriene receptor 1 (Cavia porcellus, UniProt Q2NNR5)) of C[C@H](CCC[C@H](SCCC(=O)N(C)C)c1cccc(/C=C/c2ccc3ccc(Cl)cc3n2)c1)C(=O)O
Reply: 8.64
